# System: rat primary astrocytes
# assay_explanation: MTT cell viability assay in rat primary astrocytes
# Assay type: cell-based, Sprague-Dawley rat
# condition_info: mixed rat primary astrocyte cultures (>95% astrocytes), 24 h, read-out: IC50

compound	IC50
Clc1ccc(Cl)c(-c2cc(Cl)ccc2Cl)c1 [PCB52, 2,2′,5,5′-tetrachlorobiphenyl]	11.8 µM

###

# assay_explanation: MTT cell viability assay in mouse primary glial cells
# Assay type: cell-based, C57BL/6 mouse
# condition_info: mouse, primary mixed glial cells, 1 μM, MTT, primary glial cells from C57BL/6 mice

compound_smiles	viability at 24 h, 1 µM (%)
Oc1cc(Cl)c(-c2cc(Cl)ccc2Cl)cc1Cl	150
